Quick reference: pEC50 of the listed items.
# TARGET ENTITY: α2AAR (α2A-adrenergic receptor) (Homo sapiens)
# Construct: expressed in transfected cells; host or cells: HEK293
# Sequence (P08913 1-465): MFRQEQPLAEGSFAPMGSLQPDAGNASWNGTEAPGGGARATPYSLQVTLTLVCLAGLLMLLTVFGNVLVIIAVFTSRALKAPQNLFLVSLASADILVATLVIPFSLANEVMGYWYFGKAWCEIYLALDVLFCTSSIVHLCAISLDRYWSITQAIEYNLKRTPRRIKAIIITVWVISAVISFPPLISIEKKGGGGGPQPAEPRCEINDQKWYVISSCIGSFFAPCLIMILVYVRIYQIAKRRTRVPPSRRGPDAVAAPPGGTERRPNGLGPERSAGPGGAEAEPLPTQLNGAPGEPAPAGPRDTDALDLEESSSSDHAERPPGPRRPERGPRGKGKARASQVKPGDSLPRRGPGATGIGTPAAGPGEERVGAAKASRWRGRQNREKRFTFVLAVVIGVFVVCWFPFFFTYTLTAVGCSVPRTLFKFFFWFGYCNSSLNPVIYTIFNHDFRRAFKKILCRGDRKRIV
# EXPERIMENT NOTES: α2AAR FLIPR assay (agonist activity)
# Assay type: cell-based
# DETAILS: FLIPR, α2AAR cell line hosted in HEK293 cells; read-out: α2A agonist activity (EC50)
pEC50: −log10 of the molar value.
ASSAY READOUT: pEC50

[[record]]
compound = "Cc1cccc(C(Cc2ccc(NC(=O)NC3CCOCC3)cc2)c2c[nH]cn2)c1C (centres unmarked)"
assay_readout = "pEC50"
measured_result = "7.30 to 8.00"

[[record]]
compound = "Cc1cccc(C(c2cccc(NS(=O)(=O)C[C@H]3CCCO3)c2)c2c[nH]cn2)c1C (some centres unmarked)"
assay_readout = "pEC50"
measured_result = "7.30 to 8.00"

[[record]]
compound = "CNC(=O)NCCOCCOCC(c1c[nH]cn1)c1cccc(C)c1C (single isomer, unassigned) [17-B]"
assay_readout = "pEC50"
measured_result = "7.30 to 8.00"

[[record]]
compound = "Cc1cccc(C(Cc2ccc(C(=O)NO)cc2)c2c[nH]cn2)c1C (centres unmarked)"
assay_readout = "pEC50"
measured_result = "> 8.00"

[[record]]
compound = "CCOP(=O)(OCC)c1cccc(C(c2c[nH]cn2)c2cccc(C)c2C)c1 (centres unmarked)"
assay_readout = "pEC50"
measured_result = "7.30 to 8.00"

[[record]]
compound = "Cc1cccc(C(c2cccc(C(=O)NC3CCOCC3)c2)c2c[nH]cn2)c1C (single isomer, unassigned) [121-B]"
assay_readout = "pEC50"
measured_result = "> 8.00"

[[record]]
compound = "CS(=O)(=O)Nc1cccc(CC(Oc2c(Cl)cccc2Cl)C2=NCCN2)c1 (centres unmarked)"
assay_readout = "pEC50"
measured_result = "6.60 to 7.30"

[[record]]
compound = "CNS(=O)(=O)c1cccc(C(c2c[nH]cn2)c2cccc(C)c2C)c1 (centres unmarked)"
assay_readout = "pEC50"
measured_result = "7.30 to 8.00"

